Molecular target: 5-hydroxytryptamine receptor 7 (Homo sapiens)
Sequence (P34969 whole entry): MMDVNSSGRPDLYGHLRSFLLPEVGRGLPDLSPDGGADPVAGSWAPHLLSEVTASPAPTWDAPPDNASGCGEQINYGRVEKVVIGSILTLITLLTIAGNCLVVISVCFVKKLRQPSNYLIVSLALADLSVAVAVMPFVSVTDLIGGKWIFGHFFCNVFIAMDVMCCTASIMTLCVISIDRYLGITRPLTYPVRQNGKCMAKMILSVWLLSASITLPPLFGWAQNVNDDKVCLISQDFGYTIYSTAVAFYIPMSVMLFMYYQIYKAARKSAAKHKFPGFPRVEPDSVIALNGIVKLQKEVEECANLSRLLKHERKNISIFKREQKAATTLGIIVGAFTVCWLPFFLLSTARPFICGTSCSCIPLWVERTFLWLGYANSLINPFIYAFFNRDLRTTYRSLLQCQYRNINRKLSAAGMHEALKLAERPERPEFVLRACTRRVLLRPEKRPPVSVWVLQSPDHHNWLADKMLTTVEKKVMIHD
Assay: Antagonist activity at human 5-HT7 receptor expressed in CHO-K1 cells assessed as inhibition of serotonin-induced cAMP accumulation after 60 mins by TR-FRET immunoassay
Type: functional, cell-based
Friendly reminder: Kb below 3 nM is 1.0, at or above is 0.0.

1) O=S(=O)(NCCCCN1CCC(c2noc3cc(F)ccc23)CC1)c1cc2ccccc2s1 : 0.0
2) Cc1c(S(=O)(=O)NCCCCN2CCC(c3noc4cc(F)ccc34)CC2)sc2ccc(F)cc12 : 1.0
3) O=S(=O)(NCCCCN1CCC(c2noc3cc(F)ccc23)CC1)c1ccc2ccccc2c1 : 0.0
4) Cc1c(S(=O)(=O)NCCCCN2CCC(c3noc4cc(F)ccc34)CC2)sc2ccc(Cl)cc12 : 0.0
5) O=S(=O)(NCCCCN1CCC(c2noc3cc(F)ccc23)CC1)c1cc2ccc(Cl)cc2s1 : 1.0
6) O=S(=O)(NCCCCN1CCN(c2noc3ccccc23)CC1)c1ccc2ccccc2c1 : 0.0
7) O=S(=O)(NCCCCN1CCC(c2noc3cc(F)ccc23)CC1)c1ccc2cc(Cl)ccc2c1 : 1.0
8) Cc1cccc(S(=O)(=O)NCCCN2CCC(c3noc4cc(F)ccc34)CC2)c1 : 1.0
9) O=S(=O)(NCCCN1CCC(c2noc3cc(F)ccc23)CC1)c1ccc(Cl)c(Cl)c1 : 1.0
10) O=S(=O)(NCCCN1CCC(c2noc3cc(F)ccc23)CC1)c1ccc(F)c(Cl)c1 : 1.0
11) O=S(=O)(NCCCCN1CCN(c2nsc3ccccc23)CC1)c1ccc2ccccc2c1 : 0.0
